test system: SK-MEL-5; assay: NCI tumour cell line growth inhibition, 48 h
Calls of active or inactive are those of the source. Rule as the data show it: active = GI50 up to about 1.1 µM and inactive = higher.
Entries annotated with measured GI50

{"Compound": "CC1=NN(c2cccc(Cl)c2)C(=N/c2nc3ccccc3s2)/C1=C\\C=C\\c1ccccc1", "Recorded Result": "20.6 µM (inactive)"}
{"Compound": "C=C(C)C1CC=C(C)C2(C1)OCC(C)(C)C(C)O2 (centres undefined)", "Recorded Result": "15.2 µM (inactive)"}
{"Compound": "CCN(CC)c1ccc2cc(-c3nnc(-c4ccccc4)[nH]3)c(=O)oc2c1", "Recorded Result": "> 100 µM (inactive)"}
{"Compound": "C=C1C(=O)O[C@H]2[C@H]3O[C@@H](C[C@@H]12)[C@@]1(C)CC[C@H](O1)[C@H](C)CCC[C@H]3C", "Recorded Result": "1.42 µM (inactive)"}
{"Compound": "N#CC1=C(N)OC2=C(CSc3ccccc32)C1c1ccc(Br)cc1 (centres undefined)", "Recorded Result": "11.6 µM (inactive)"}
{"Compound": "CCc1cccc(C)c1NC(=O)C1=C(C)NC(C)=C(C(=O)Nc2c(C)cccc2CC)C1c1ccc([N+](=O)[O-])cc1", "Recorded Result": "34 µM (inactive)"}
{"Compound": "COc1ccc2nc(NCN3C(=O)c4ccccc4C3=O)sc2c1", "Recorded Result": "> 100 µM (inactive)"}
{"Compound": "O=C(O)C(Cc1ccc(O)c([N+](=O)[O-])c1)N1C(=O)c2ccccc2C1=O (centres undefined)", "Recorded Result": "> 100 µM (inactive)"}

# evaluate next
Value lookup for GI50; key = CSc1nc(Br)nc2ncn(C3CC(Oc4ccc(C)cc4)C(COc4ccc(C)cc4)O3)c12 (centres undefined)
> 100 µM (inactive)

###

test system: XF498; assay: NCI tumour cell line growth inhibition, 48 h
Activity calls are given as the source filed them. Rule as the data show it: active = GI50 up to about 1.1 µM and inactive = higher.
Entries annotated with measured GI50

Consider the worked cases shown below.
{"Compound": "N#CC1(C=O)c2ccccc2C=CN1C(=O)c1ccccc1 (stereo not given)", "System": "XF498", "GI50": "22 µM (inactive)"}
{"Compound": "CC(C)OC(=O)C1Cc2c([nH]c3ccccc23)C(c2ccccc2)N1 (stereo not given)", "System": "XF498", "GI50": "> 100 µM (inactive)"}

Value lookup for GI50; key = Cc1ccc(/C=C2\CNC/C(=C\c3ccc(C)cc3)C2=O)cc1
2.59 µM (inactive)

###

system: MDA-MB-231; assay: NCI tumour cell line growth inhibition, 48 h
The source made the active and inactive calls. Rule as the data show it: active = GI50 up to about 1.1 µM and inactive = higher.
Lab note: assign the record to one of true (1) for active, false (0) for inactive

Observe how each entry below is paired with its result.
{"Molecule": "COc1cc(C2SC(=N)Nc3c2c(C)nn3C(=O)c2ccc(Cl)cc2)cc(OC)c1OC (stereo not given)", "Cat": "false (0)"}
{"Molecule": "C/C(=C\\CNc1ncnc2c1ncn2CCC#N)CO", "Cat": "false (0)"}
{"Molecule": "O=C1Sc2ccccc2NC1=C(C(=O)c1ccccc1)C(=O)c1ccccc1", "Cat": "false (0)"}
{"Molecule": "CC1=CC(C)C(C)N(CCNS(=O)(=O)c2ccc(C)cc2)c2ccccc21 (stereo not given)", "Cat": "false (0)"}
{"Molecule": "COc1cc(/C=C2\\CCC/C(=C\\c3ccc(OC(=O)CCCCC4CCSS4)c(OC)c3)C2=O)ccc1OC(=O)CCCCC1CCSS1 (stereo not given)", "Cat": "false (0)"}
{"Molecule": "C/C=C/[C@H]1O[C@@](O)([C@@H](C)[C@H](O)[C@H](C)[C@H]2OC(=O)/C(OC)=C/C(C)=C/[C@@H](C)[C@@H](O)[C@@H](CC)[C@@H](O)[C@H](C)C/C(C)=C/C=C/[C@@H]2OC)C[C@H](OC2CC(O)C(O)C(C)O2)[C@@H]1C (stereo not given in full)", "Cat": "true (1)"}
{"Molecule": "c1csc(-c2nccc3c2[nH]c2ccccc23)c1", "Cat": "false (0)"}
{"Molecule": "COc1ccc(/C(Cl)=C(\\C=O)c2ccc(OC)c(OC)c2)cc1OC", "Cat": "false (0)"}
{"Molecule": "O=C(N/N=C/c1ccc([N+](=O)[O-])cc1)Nc1ccc(C(=O)O)cc1", "Cat": "false (0)"}

Here is the next item to consider.
Just curious, what result did CC(=O)OCC1OC(N2C(=O)NC(=O)C3C=C4CCCCC4=CC32)CC1OC(C)=O (stereo not given) get here?
false (0)
